What IC50 was measured for each of the following?
assay_procedure: Cytostatic activity against human Molt4/C8 cells assessed as growth inhibition after 3 to 4 days by MTT assay
Type: functional, cell-based
condition_description: MOLT-4

Lookup: Indicate its recorded IC50; the molecule in question is COc1cc(NC(C)CCCNC(=O)NNC(=O)NCCCO)c2ncccc2c1 (stereo not drawn)
Found: > 250 µM

Lookup: Fill in IC50 for record COc1cc(NC(C)CCCNC(=O)NNC(=O)N(CCO)CCO)c2ncccc2c1 (stereo not drawn)
Found: > 250 µM

Lookup: Answer with reported IC50 of COc1cc(NC(C)CCCNC(=O)NC(c2ccccc2)c2ccc(Cl)cc2)c2ncccc2c1 (stereo not drawn)
Found: ≥ 250 µM

---

assay_procedure: Antioxidant activity assessed as DPPH scavenging activity at 100 uM after 60 mins by spectrophotometry
Assay type: physicochemical
condition_description: 1 h
readout: Activity (%)
Reply with just the number (in %).

Lookup: Report measured Activity; entry is NNC(=O)NC(c1ccccc1)c1ccc(Cl)cc1 (configuration not stated)
Found: 27

Lookup: Return reported Activity. Input molecule: COc1cc(NC(C)CCCNC(=O)Nc2ccc(Cl)c(C(F)(F)F)c2)c2ncccc2c1 (configuration not stated)
Found: 21

Lookup: Indicate the recorded Activity value for this molecule: O=C(NC(c1ccccc1)c1ccc(Cl)cc1)n1nnc2ccccc21 (configuration not stated)
Found: 12

Lookup: Could you please provide reported Activity for COc1cc(NC(C)CCCNC(=O)NN)c2ncccc2c1 (configuration not stated) ? Thanks!
Found: 82

Lookup: Answer with the recorded Activity for the molecule listed here: COc1cc(NC(C)CCCNC(=O)NNC(=O)N(C)C(c2ccccc2)c2ccccc2)c2ncccc2c1 (configuration not stated)
Found: 73

Lookup: Tell me Activity reported for COc1cc(NC(C)CCCNC(=O)NCCCC(C)Nc2cc(OC)cc3cccnc23)c2ncccc2c1 (configuration not stated)
Found: 32

Lookup: Note Activity for the molecule shown: COc1cc(NC(C)CCCNC(=O)NNC(=O)NCCCCCO)c2ncccc2c1 (configuration not stated)
Found: 32

Lookup: Tell me Activity reported for COc1cc(NC(C)CCCNC(=O)NNC(=O)NCCNC(c2ccccc2)(c2ccccc2)c2ccccc2)c2ncccc2c1 (configuration not stated)
Found: 41

---

assay_procedure: Antioxidant activity assessed as DPPH scavenging activity at 100 uM after 20 mins by spectrophotometry
Assay type: physicochemical
For each of the compounds below, state its Activity.
Write the number in % without appending the unit.

Lookup: // Input: COc1ccc(C(=NNC(=O)NCCCC(C)Nc2cc(OC)cc3cccnc23)c2ccc(OC)cc2)cc1 (stereo not given) . Output its Activity only.
Found: 5

Lookup: Provide only the value of recorded Activity for COc1cc(NC(C)CCCNC(=O)NCCCC(C)Nc2cc(OC)cc3cccnc23)c2ncccc2c1 (stereo not given)
Found: 20

Lookup: Give a short answer stating reported Activity for COc1ccc(C(=NNC(=O)NNC(=O)NCCCC(C)Nc2cc(OC)cc3cccnc23)c2ccc(OC)cc2)cc1 (stereo not given) .
Found: 37

Lookup: Hello, please tell me recorded Activity for this one: O=C(NC(c1ccccc1)c1ccc(Cl)cc1)n1nnc2ccccc21 (stereo not given)
Found: 24

---

Can you tell me IC50 for the items I'm about to list?
assay_procedure: Cytostatic activity against human Molt4/C8 cells assessed as growth inhibition after 3 to 4 days by MTT assay
Assay type: functional, cell-based
condition_description: MOLT-4

Lookup: Give the value of IC50 reported for the following: O=C(NC(c1ccccc1)c1ccc(Cl)cc1)NC(c1ccccc1)c1ccc(Cl)cc1 (stereo unspecified)
Found: > 250 µM

Lookup: Given the molecule COc1cc(NC(C)CCCNC(=O)NNC(=O)NCCCCCO)c2ncccc2c1 (stereo unspecified) , write its reported IC50.
Found: ≥ 250 µM

Lookup: Note IC50 for the molecule shown: COc1cc(NC(C)CCCNC(=O)NNC(=O)NCCCC(C)Nc2cc(OC)cc3cccnc23)c2ncccc2c1 (stereo unspecified)
Found: ≥ 250 µM

Lookup: Output IC50 of COc1ccc(C(=NNC(=O)NCCCC(C)Nc2cc(OC)cc3cccnc23)c2ccc(OC)cc2)cc1 (stereo unspecified)
Found: > 250 µM

Lookup: Name the recorded IC50 of the molecule listed here: COc1cc(NC(C)CCCNC(=O)NNC(=O)NCCO)c2ncccc2c1 (stereo unspecified)
Found: > 250 µM

Lookup: Name the recorded IC50 of the item COc1ccc(/C(=N/NC(=O)NCCCC(C)Nc2cc(OC)cc3cccnc23)c2ccccc2)cc1 (stereo unspecified) in your answer.
Found: ≥ 250 µM

Lookup: For the molecule COc1cc(NC(C)CCCNC(=O)NCCCC(C)Nc2cc(OC)cc3cccnc23)c2ncccc2c1 (stereo unspecified) , give its reported IC50.
Found: > 250 µM

Lookup: Supply reported IC50 belonging to this molecule: COc1cc(NC(C)CCCNC(=O)NNC(=O)NC(CO)(CO)CO)c2ncccc2c1 (stereo unspecified)
Found: > 250 µM

Lookup: Item COc1cc(NC(C)CCCNC(=O)NN)c2ncccc2c1 (stereo unspecified) : provide IC50
Found: ≥ 250 µM

Lookup: Name the recorded IC50 of the molecule listed here: NNC(=O)NC(c1ccccc1)c1ccc(Cl)cc1 (stereo unspecified)
Found: ≥ 250 µM

Lookup: Please report IC50 for the following molecule: CCOC(=O)NC(c1ccccc1)c1ccc(Cl)cc1 (stereo unspecified)
Found: > 250 µM

Data origin, for the record: ChEMBL document CHEMBL3352491
